Origin of the recorded values: PubChem BioAssay (EPA / NIEHS)

Read-out: KRT18 (gene 3875)
assay_procedure: BSK_BE3C_Keratin818: BioMAP Diversity Plus: BE3C Assay for Keratin 818 Biomarker Activity (AID 2284282)
assay_conditions: primary human bronchial epithelial cells
Active and inactive are the calls of the source. Rule for the calls: active = hit-call score of the fitted dose curve at least 0.9, where 1 is the maximum; inactive = score below 0.9.

compound	outcome
NC(O)(C(F)(F)F)C(F)(F)F	inactive
NC(=O)C(F)(F)C(F)(F)C(F)(F)C(F)(F)C(N)=O	inactive
OCC(O)CC(F)(F)C(F)(F)C(F)(F)C(F)(F)C(F)(F)C(F)(F)C(F)(F)C(F)(F)F (stereo not drawn)	inactive
O=C(Cl)C(F)(F)C(F)(F)C(F)(F)C(F)(F)C(F)(F)C(F)(F)F	inactive
O=C(F)C1(F)C(F)(F)C(F)(F)C(F)(F)C(F)(F)C1(F)F	inactive
NCC(F)(F)C(F)(F)C(F)(F)C(F)(F)C(F)(F)C(F)(F)F	inactive
C=CC(=O)OCC(F)(F)C(F)(F)C(F)(F)COC(=O)C=C	inactive
FC(F)(F)C(F)(F)C(F)(F)CC1CO1 (stereo not drawn)	inactive
FC(F)(F)C(F)(F)C(F)(F)C(F)(F)C(F)(F)C(F)(F)CC[Si](Cl)(Cl)Cl	inactive
CN(C(=O)C(F)(F)C(F)(F)C(F)(F)F)[Si](C)(C)C	inactive
NC(=O)C(F)(F)C(F)(F)C(F)(F)F	inactive
OCCCCC(F)(F)C(F)(F)C(F)(F)C(F)(F)F	inactive
O=C(O)C(F)(F)C(F)(F)C(F)(F)C(=O)O	inactive
NC(=O)C(F)(F)C(F)(F)C(F)(F)C(F)F	inactive
C[Si](Cl)(Cl)CCC(F)(F)C(F)(F)C(F)(F)C(F)(F)C(F)(F)C(F)(F)F	inactive
OCC(F)(F)C(F)(F)C(F)(F)C(F)(F)C(F)(F)C(F)(F)CO	inactive
NCC(F)(F)C(F)(F)C(F)(F)C(F)(F)C(F)(F)C(F)(F)C(F)(F)C(F)(F)F	inactive
FC(F)(F)C(F)(F)C(F)(F)C(F)(F)C(F)(F)C(F)(F)C(F)(F)CCI	inactive
CNS(=O)(=O)C(F)(F)C(F)(F)C(F)(F)C(F)(F)C(F)(F)C(F)(F)C(F)(F)C(F)(F)F	inactive
O=C(O)C(F)(F)OC(F)(F)C(F)(F)OC(F)(F)C(F)(F)OC(F)(F)F	inactive
OC(O)C(F)(F)C(F)(F)F	inactive
O=C(O)C(F)(F)C(F)(F)C(F)(F)OC(F)(F)F	inactive
O=C(Cl)C(F)(F)C(F)(F)C(F)(F)C(F)(F)C(F)(F)C(F)(F)C(F)(F)F	inactive

* * *

experimental_target: Bile acid receptor (Homo sapiens)
assay_procedure: ATG_FXR_TRANS: Attagene TRANS-FACTORIAL HepG2 Assay for Farnesoid X Receptor (FXR) (AID 2282979);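 note: hits raise reporter mRNA above DMSO so AC50 marks FXR activation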
assay_conditions: HepG2 Attagene TRANS FXR-GAL4 reporter transcription
Inconclusive results are not listed. Calls of active or inactive are those of the source. The calls were made as follows: active = hit-call score of the fitted dose curve at least 0.9, where 1 is the maximum; inconclusive = response in the unintended direction; inactive = score below 0.9.
Outcomes: active, inactive

compound	qualitative_label
O=S(=O)(O)CCC(F)(F)C(F)(F)C(F)(F)C(F)(F)C(F)(F)C(F)(F)C(F)(F)C(F)(F)F	active
O=C1c2ccccc2C(=O)c2c(Cl)cccc21	inactive
C[Si](C)O[Si](C)C	inactive
O=C(c1ccccc1)c1ccc(Cl)cc1	inactive
CC1=CCC(=O)O1	inactive
CCCCCCCC/C=C\CCCCCCCC(=O)OCC(O)CO (configuration not stated)	inactive
CCn1c2ccccc2c2ccccc21	inactive
